- Target System: D(2) dopamine receptor (Rattus norvegicus, UniProt P61169)
- Sequence (P61169 whole entry): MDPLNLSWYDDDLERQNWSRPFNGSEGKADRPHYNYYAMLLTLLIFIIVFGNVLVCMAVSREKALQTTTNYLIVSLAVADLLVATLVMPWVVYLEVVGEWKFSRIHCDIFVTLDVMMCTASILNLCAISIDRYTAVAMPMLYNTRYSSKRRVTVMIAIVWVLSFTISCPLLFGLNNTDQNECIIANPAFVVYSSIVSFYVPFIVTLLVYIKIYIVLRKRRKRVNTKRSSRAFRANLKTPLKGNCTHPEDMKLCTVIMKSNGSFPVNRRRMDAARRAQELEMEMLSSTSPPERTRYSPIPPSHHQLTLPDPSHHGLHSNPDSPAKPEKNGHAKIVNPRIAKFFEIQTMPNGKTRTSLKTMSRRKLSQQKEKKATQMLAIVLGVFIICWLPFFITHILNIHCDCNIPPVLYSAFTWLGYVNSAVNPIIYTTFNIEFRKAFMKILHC
- Procedure Text: Binding affinity against dopamine receptor D2
pIC50: −log10 of the molar value.
Use MET when the recorded pIC50 is no lower than 7; use NOT MET when it is lower.

Worked examples follow.
| Compound | Category Label |
| --- | --- |
| OCCN1CCN(C2CC(c3ccc(F)cc3)c3ccc(Cl)cc32)CC12CCCC2 (stereo in doubt; 35) | MET |
| Cc1ccc2c(c1)C(N1CCN(C)CC1)CC2c1ccc(F)cc1 (stereo not given) | MET |
| CN1CCN(C2CC(c3ccccc3)c3ccccc32)CC1 (stereo not given) | NOT MET |
| CS(=O)(=O)c1ccc2c(c1)C(N1CCN(CCO)CC1)CC2c1ccc(F)cc1 (stereo not given) | MET |

*Q* API: above_or_equal(metric=pIC50, cutoff=7) for item CC1CN(C2CC(c3ccc(F)cc3)c3ccc(Cl)cc32)C(C)CN1C (stereo not given)
*A* MET

*Q* API: above_or_equal(metric=pIC50, cutoff=7) for item CN1CCN(C2CC(c3ccccc3)c3ccc(Cl)cc32)CC1(C)C (stereo in doubt; (+)-38)
*A* NOT MET

*Q* API: above_or_equal(metric=pIC50, cutoff=7) for item CC1(C)CN(C2CC(c3ccc(F)cc3)c3ccc(Cl)cc32)CCN1CCCO (stereo not given)
*A* MET

*Q* API: above_or_equal(metric=pIC50, cutoff=7) for item CN1CCN(C2CC(c3ccc(F)cc3)c3ccccc32)CC1(C)C (stereo in doubt; (-)-39)
*A* MET
